- EXPERIMENT SUMMARY: growth suppression of yeast trafficking mutant, preliminary HTS, modulators of trafficking downstream of Golgi apparatus project, 1536-format plate, OD 615 nm (AID 637); also: test concentration not given here
- PARTICULARS: yeast transport mutant growth, absorbance 615 nm, 18 h; stronger effect = higher value
Provide the recorded inhibition for the entries that follow.
One number for each entry, in %.

Record excerpt, results attached:
[
  {
    "COMPOUND": "Fc1cccc2sc(Nc3nnc(-c4ccco4)o3)nc12",
    "inhibition / %": 0
  },
  {
    "COMPOUND": "Cc1ccc(-c2nnc3c4ccccc4c(C)nn23)cc1S(=O)(=O)N1CCN(C)CC1",
    "inhibition / %": 1.15
  },
  {
    "COMPOUND": "CC1CCCC(C)N1C(=O)CSc1nnc(-c2cccs2)o1 (stereo not drawn)",
    "inhibition / %": -3.09
  },
  {
    "COMPOUND": "CCOC(=O)N1CCC(NC(=O)c2ccc(OC)c(CN3CC(=O)N4CCCC4C3=O)c2)CC1 (stereo not drawn)",
    "inhibition / %": -3.49
  },
  {
    "COMPOUND": "Cn1cnnc1Sc1nc2c(c(=O)n(C)c(=O)n2C)n1Cc1ccccc1Cl",
    "inhibition / %": 0.91
  }
]

Report inhibition for every entry below.
1. COc1cc(NC(=O)c2ccco2)c(OC)cc1NC(=O)CCC(=O)Nc1cc(C)cc(C)c1
2. O=C1NC(c2cccnc2)C(C(=O)c2cccs2)C(O)(C(F)(F)F)N1 (stereo not drawn)
3. O=C(Cn1cnc2c(cnn2-c2ccc(F)cc2)c1=O)N1CCN(c2ccccc2)CC1
4. Cc1ccc2c(c1)sc1ncc(NC(=O)c3ccccc3)c(=O)n12

-0.95
-0.18
-5.57
0.66

Report inhibition for every entry below.
1. CC(C)COc1ccc(-c2nnn(CC(=O)N3CCCC3)n2)cc1
2. O=C(O)CCc1ccc(-c2ccccc2)n1CC(=O)O
3. CCOc1ccccc1N(CC(=O)N1CCOCC1)S(=O)(=O)c1ccccc1
4. COc1ccc(CC(=O)NCc2ccccc2)cc1S(=O)(=O)N1CCOCC1
5. CCCC(=O)Nc1c2c(nn1-c1ccc(OC)cc1)CS(=O)C2 (stereo not drawn)
6. Cc1ccc(C)c(CSc2nnc(CCN)o2)c1

1. 16.9
2. 12.5
3. -4.76
4. 5.82
5. 6.07
6. 5.45

Report inhibition for every entry below.
1. COc1ccc(Cl)cc1-c1n[nH]c(=S)o1
2. C=C(CC)C(=O)c1ccc(OCC(=O)O)c(Cl)c1Cl

1: -1.27; 2: -0.5

Report inhibition for every entry below.
1. CCC12CN3CC(CC)(CN(C1)C3c1ccc(OC(C)C)cc1)C2=O (stereo not drawn)
2. C=CCn1c(=S)[nH]c2nc3c(cc2c1=O)COC(C)(C)C3
3. Cc1cccc(NC(=O)CSc2nnc(-c3ccccc3C)o2)c1

1. -0.95
2. 2.86
3. -7.27
